System: Plasmodium falciparum
PROCEDURE SUMMARY: Screen against P. falciparum Asexual Blood Stage (ABS), at 5uM
Assay type: functional, Dd2
STATED CONDITIONS: tested at 5 uM
Hit rate of the full screen: of about 65,000 compounds, about 2,100 (3.2%) showed an effect of 50% or more. The median lay at about -52%. The sample holds strong results, similar compounds and a random draw of the others, so the mix is not that of the screen.
Classification scheme (INHIBITION): band A = under -50%, band B = from -50% up to 30%, band C = 30% and over

[
  {
    "COMPOUND": "O=C1CSC(c2ccncc2)c2c(n(C3CCOCC3)[nH]c2=O)N1 (configuration not stated)",
    "GROUP LABEL": "band A"
  },
  {
    "COMPOUND": "CC(Cn1ccnc1)NCc1cc(Br)c2c(c1)OCO2 (configuration not stated)",
    "GROUP LABEL": "band B"
  },
  {
    "COMPOUND": "CN(C)C(=O)CN1CC[C@H]2[C@H]1CCN2c1ncccn1",
    "GROUP LABEL": "band A"
  },
  {
    "COMPOUND": "Cc1cnc(N2C[C@H]3CCN(CC4CC4)C[C@@H]3C2)nc1",
    "GROUP LABEL": "band C"
  },
  {
    "COMPOUND": "Cc1cccc(CN2CC[C@@H]3[C@@H]2CCN3C(=O)c2cc(C)on2)n1",
    "GROUP LABEL": "band A"
  },
  {
    "COMPOUND": "COc1ccccc1C1(CNCc2cccc(O)c2)CCOCC1",
    "GROUP LABEL": "band C"
  },
  {
    "COMPOUND": "CCN1CCC2(CC1)CC(NCc1cccs1)c1ccccc1O2 (configuration not stated)",
    "GROUP LABEL": "band C"
  },
  {
    "COMPOUND": "CN(C)[C@@H]1CCN(C(=O)Cc2ccc(F)cc2)[C@H]1Cc1ccncc1",
    "GROUP LABEL": "band B"
  },
  {
    "COMPOUND": "C1CCC(c2nc3c(c(N4CCN5CCCC5C4)n2)CCNCC3)C1 (configuration not stated)",
    "GROUP LABEL": "band C"
  },
  {
    "COMPOUND": "COc1ccccc1N1CCC(CNCc2ccc(C#N)cc2)C1 (configuration not stated)",
    "GROUP LABEL": "band C"
  },
  {
    "COMPOUND": "CN(C)[C@@H]1CCN(c2ncc(F)cn2)[C@H]1Cc1ccccc1",
    "GROUP LABEL": "band C"
  },
  {
    "COMPOUND": "O=C(c1onc2ccccc12)N1CCC2(CCCNC2)C1 (configuration not stated)",
    "GROUP LABEL": "band A"
  },
  {
    "COMPOUND": "CC[C@H]1CN2CC[C@H]1C[C@@H]2CNCc1cccc(C#N)c1",
    "GROUP LABEL": "band C"
  },
  {
    "COMPOUND": "CCc1nc(CN2CCN(C(=O)Cc3c(C)noc3C)CC2)cs1",
    "GROUP LABEL": "band B"
  },
  {
    "COMPOUND": "Nc1nc(N)c2c(n1)OC1(CCN(Cc3nccs3)C1)C2 (configuration not stated)",
    "GROUP LABEL": "band A"
  },
  {
    "COMPOUND": "CN1CCOCC2(CCCN(C(=O)Cc3ccncc3)C2)C1 (configuration not stated)",
    "GROUP LABEL": "band A"
  },
  {
    "COMPOUND": "O=C(Nc1cccnc1)[C@@H]1COC[C@H]2CN(C3CCCC3)C[C@H]21",
    "GROUP LABEL": "band B"
  },
  {
    "COMPOUND": "Cc1noc(C)c1CC(=O)N1CCCN(Cc2cscn2)CC1",
    "GROUP LABEL": "band C"
  },
  {
    "COMPOUND": "Cc1nc(N2C[C@H]3CNC[C@H]3C2)c2sccc2n1",
    "GROUP LABEL": "band A"
  },
  {
    "COMPOUND": "COCCN1CCN(S(=O)(=O)C2CC2)Cc2cccnc21",
    "GROUP LABEL": "band B"
  },
  {
    "COMPOUND": "COc1cc(CNC(C)Cn2ccnc2)cc2c1OCO2 (configuration not stated)",
    "GROUP LABEL": "band B"
  },
  {
    "COMPOUND": "CN(C)C[C@@H]1C[C@@H]2CN(c3ncc(F)cn3)CC[C@@H]2N1C",
    "GROUP LABEL": "band B"
  },
  {
    "COMPOUND": "CN1CCN(Cc2cccnc2)Cc2cccnc21",
    "GROUP LABEL": "band A"
  },
  {
    "COMPOUND": "Cc1cnn(CC(C)NCc2ccncc2)c1 (configuration not stated)",
    "GROUP LABEL": "band B"
  },
  {
    "COMPOUND": "COc1ccc(Cl)cc1CNCCCn1ccnc1",
    "GROUP LABEL": "band C"
  },
  {
    "COMPOUND": "CC(Cn1ccnc1)NCc1ccc2nonc2c1 (configuration not stated)",
    "GROUP LABEL": "band A"
  },
  {
    "COMPOUND": "CC(C)N1CCOC(c2ccnc(N(C)C)n2)C1 (configuration not stated)",
    "GROUP LABEL": "band A"
  },
  {
    "COMPOUND": "CNC(=O)[C@H]1C[C@@H]2CN(Cc3cccnc3OC)C[C@@H]2N1C(C)C",
    "GROUP LABEL": "band B"
  },
  {
    "COMPOUND": "Cc1cccc(CN2CCC3(CCN(c4cccnc4)C3=O)C2)n1 (configuration not stated)",
    "GROUP LABEL": "band B"
  },
  {
    "COMPOUND": "O=C(N1CCCO1)[C@@]12CCO[C@@H]1CCN(Cc1ccccn1)C2",
    "GROUP LABEL": "band A"
  },
  {
    "COMPOUND": "c1cnc(NC[C@H]2OC[C@@H]3CCN(Cc4ccncc4)C[C@@H]32)nc1",
    "GROUP LABEL": "band A"
  },
  {
    "COMPOUND": "Cc1cnc(N2CCC3(CC2)CN(Cc2cccs2)CCO3)nc1",
    "GROUP LABEL": "band B"
  },
  {
    "COMPOUND": "CN(C)C[C@@H]1CN(C2CCN(c3ccccc3Cl)CC2)C[C@@H]1CO",
    "GROUP LABEL": "band C"
  },
  {
    "COMPOUND": "CNC(=O)CN1CCO[C@H]2CN(C(=O)c3ccncc3F)C[C@H]21",
    "GROUP LABEL": "band A"
  },
  {
    "COMPOUND": "Cc1cnn(CCNCc2ccccc2OCc2cccnc2)c1",
    "GROUP LABEL": "band C"
  },
  {
    "COMPOUND": "CCOc1ccc(CNCCCn2ccnc2)cc1Cl",
    "GROUP LABEL": "band C"
  },
  {
    "COMPOUND": "CSC1(CNC(=O)NC(C)Cc2cccc(F)c2)CCOCC1 (configuration not stated)",
    "GROUP LABEL": "band B"
  },
  {
    "COMPOUND": "CC1CCN(CCNCc2cc(-c3ccccc3)cn3nnnc23)CC1",
    "GROUP LABEL": "band C"
  },
  {
    "COMPOUND": "O=C1Nc2ccccc2C12CCN(Cc1cccs1)CC2",
    "GROUP LABEL": "band B"
  },
  {
    "COMPOUND": "c1ccc(Cn2cccn2)c(CN2CCC3(CCCNC3)C2)c1 (configuration not stated)",
    "GROUP LABEL": "band C"
  },
  {
    "COMPOUND": "O=C(c1cccnc1)N1CCO[C@@H]2CNC[C@@H]21",
    "GROUP LABEL": "band B"
  },
  {
    "COMPOUND": "Cc1ccc(C(=O)N2C[C@@H]3CCCO[C@@H]3[C@H](N3CCCC3)C2)cn1",
    "GROUP LABEL": "band A"
  },
  {
    "COMPOUND": "Cc1cnn(CC(C)NCc2ccc(C#N)cc2)c1 (configuration not stated)",
    "GROUP LABEL": "band A"
  },
  {
    "COMPOUND": "CCOc1ccc(CNCCCn2ccnc2)cc1Br",
    "GROUP LABEL": "band C"
  },
  {
    "COMPOUND": "CN(C)[C@@H]1CCN(C(=O)Cc2cccs2)[C@H]1Cc1ccncc1",
    "GROUP LABEL": "band A"
  },
  {
    "COMPOUND": "CCOc1cc(CNCCCn2ccnc2)cc(Cl)c1OCC",
    "GROUP LABEL": "band C"
  }
]
